Overview of reported Ki across a group of compounds:
biological target: Tyrosine-protein phosphatase non-receptor type 1 (Homo sapiens, UniProt P18031); experiment: Binding affinity to human recombinant PTP1B
Write down the numeric answer in µM and omit the unit.

Answered examples (2):
smilesText | unitAnnotation | Ki
Nc1cccc(-c2cc(NC(=O)C(=O)O)c(C(=O)O)s2)c1 | µM | 6.03
Cc1cccc(C(=O)O)c1NC(=O)C(=O)O | µM | 1260

Please examine the following record next.
response.value for `O=C(O)C(=O)Nc1sc2c(c1C(=O)O)CCS(=O)(=O)C2` (field: Ki) = 6.03

* * *

Target: Tyrosine-protein phosphatase non-receptor type 1 (Homo sapiens)
Sequence (P18031 whole entry): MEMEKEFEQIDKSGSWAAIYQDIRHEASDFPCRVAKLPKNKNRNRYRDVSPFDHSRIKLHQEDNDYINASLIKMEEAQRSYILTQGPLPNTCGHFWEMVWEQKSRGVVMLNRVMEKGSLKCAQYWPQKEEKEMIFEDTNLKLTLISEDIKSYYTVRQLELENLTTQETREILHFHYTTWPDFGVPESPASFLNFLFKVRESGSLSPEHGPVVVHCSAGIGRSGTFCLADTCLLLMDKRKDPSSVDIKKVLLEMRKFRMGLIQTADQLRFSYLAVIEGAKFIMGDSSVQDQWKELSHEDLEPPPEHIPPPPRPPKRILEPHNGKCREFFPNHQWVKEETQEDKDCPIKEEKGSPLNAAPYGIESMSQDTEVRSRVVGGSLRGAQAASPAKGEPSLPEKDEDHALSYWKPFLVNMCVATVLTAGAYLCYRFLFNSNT
Test: Binding affinity to human recombinant PTP1B
propertyName: IC50
The reply must contain the numeric value and, after it, the unit.

smilesText | propertyName | recordedResult
Oc1c(Br)cc(-c2ccc(-c3c(Cc4ccccc4)sc4ccccc34)cc2)cc1Br | IC50 | 447 nM
CCCCc1sc2ccccc2c1-c1ccc(-c2ccc(O)cc2)cc1 | IC50 | 692 nM
O=C(O)/C=C/C(=O)Nc1cc(-c2ccc(-c3c(Cc4ccccc4)oc4ccccc34)cc2)ccc1O | IC50 | 457 nM
CCCCc1sc2ccccc2c1-c1ccc(-c2ccc(OCC(=O)O)cc2)cc1 | IC50 | 2190 nM

Quick note, IC50 for `O=C(O)[C@H](Oc1ccc(-c2ccc(-c3c(Cc4ccc(O)cc4O)sc4ccccc34)cc2)cc1)c1ccccc1` landed at 120 nM
